assay_system: enzyme I of the bacterial phosphotransferase system (PTS) (Escherichia coli)
run_description: Assay for Enzyme I dependent PEP: peptide phosphotransferase activity (LDH-coupled, NADH read-out at 340 nm)
Format: biochemical
experimental_context: enzyme I 0.75 μM, 0.8 mM PEP, pH 7.5; read-out: Inhibition of PTS (IC50 in μM)
recorded_metric: log10(IC50) (log10 of the value in µM)
A difference of one corresponds to tenfold IC50; all values are log10 with IC50 in µM.

// below: answered molecules
smi	assay_system	log10(IC50)
CC(=NNC(=O)c1ccc(O)cc1)c1cc(O)ccc1O	enzyme I of the bacterial phosphotransferase system (PTS) (Escherichia coli)	0.24
O=C(Cc1c[nH]c2ccccc12)NN=Cc1ccccc1O	enzyme I of the bacterial phosphotransferase system (PTS) (Escherichia coli)	1.70

# get_value(readout='log10(IC50)', item= COc1cccc(C(=O)NN=C(C)c2ccccc2O)c1 )
0.90

Recorded log10(IC50) for O=C(NN=Cc1ccc(O)cc1O)c1ccc(Cl)cc1 , please?
1.30

Given Nc1ccc(Cl)cc1C(=O)NN=Cc1ccccc1O , state its recorded log10(IC50).
0.78

* * *

The molecules listed here are annotated with their IC50.
assay_system: enzyme I of the bacterial phosphotransferase system (PTS) (Escherichia coli, UniProt P08839)
run_description: Assay for Enzyme I dependent PEP: peptide phosphotransferase activity (LDH-coupled, NADH read-out at 340 nm)
Assay type: biochemical
experimental_context: enzyme I 0.75 μM, 0.8 mM PEP, pH 7.5; read-out: Inhibition of PTS (IC50 in μM)
# value in µM; strip the unit string

Some solved cases for reference:
smi	assay_value
O=C(NN=Cc1cc(O)ccc1O)c1ccc(Cl)cc1	8
O=C(NN=Cc1cc(O)ccc1O)c1ccc(O)cc1	0.5
CC(=NNC(=O)c1ccccc1)c1cc(O)ccc1O	6
Cc1cccc(C(=O)NN=Cc2cc(Cl)ccc2O)c1	4
O=C(NN=Cc1cc(Cl)ccc1O)c1cccc(Cl)c1	75
O=C(NN=Cc1cc(O)ccc1O)c1cccc(Cl)c1	0.7
COc1cccc(C(=O)NN=Cc2cc(O)ccc2O)c1	15
O=C(NN=Cc1ccc(O)c(O)c1O)c1ccc(Cl)c(Cl)c1	75
COc1cccc(C(=O)NN=Cc2ccccc2O)c1	7

Any idea what IC50 was measured for CC(=NNC(=O)c1ccc(Cl)cc1)c1ccccc1N ?
0.8

* * *

assay_system: enzyme I of the bacterial phosphotransferase system (PTS) (Escherichia coli)
run_description: Assay for Enzyme I dependent PEP: peptide phosphotransferase activity (LDH-coupled, NADH read-out at 340 nm)
Type: biochemical
experimental_context: enzyme I 0.75 μM, 0.8 mM PEP, pH 7.5; read-out: Inhibition of PTS (IC50 in μM)
Labelling: IC50 reported below 6 µM becomes YES; at or above becomes NO.

Example cases with answers are listed next.
smi	assay_system	cat
CC(=O)Nc1ccccc1C(C)=NNC(=O)c1ccccc1	enzyme I of the bacterial phosphotransferase system (PTS) (Escherichia coli)	NO
O=C(NN=Cc1ccc(O)c(O)c1O)c1ccccc1	enzyme I of the bacterial phosphotransferase system (PTS) (Escherichia coli)	YES
Cc1cccc(C(=O)NN=Cc2cc(O)ccc2O)c1	enzyme I of the bacterial phosphotransferase system (PTS) (Escherichia coli)	YES
COc1cc(C(=O)NN=Cc2cc(Cl)ccc2O)ccc1O	enzyme I of the bacterial phosphotransferase system (PTS) (Escherichia coli)	NO
COc1cc(C(=O)NN=Cc2ccc(O)c(O)c2O)cc(OC)c1OC	enzyme I of the bacterial phosphotransferase system (PTS) (Escherichia coli)	NO
O=C(NN=Cc1cc(Cl)ccc1O)c1cccc(C(F)(F)F)c1	enzyme I of the bacterial phosphotransferase system (PTS) (Escherichia coli)	NO

Is 6 µM strictly greater than the compound's reported IC50? compound: O=C(NN=Cc1ccc(O)cc1O)c1cccc(C(F)(F)F)c1
NO

Dear reviewer, please state whether O=C(NN=Cc1ccccc1O)c1cccc(C(F)(F)F)c1 has IC50 strictly beneath 6 µM.
NO

Would you kindly verify if IC50 of COc1cc(C(=O)NN=Cc2cc(O)ccc2O)ccc1O is strictly less than 6 µM?
YES

* * *

assay_system: enzyme I of the bacterial phosphotransferase system (PTS) (Escherichia coli, UniProt P08839)
run_description: Assay for Enzyme I dependent PEP: peptide phosphotransferase activity (LDH-coupled, NADH read-out at 340 nm)
Format: biochemical
experimental_context: enzyme I 0.75 μM, 0.8 mM PEP, pH 7.5; read-out: Inhibition of PTS (IC50 in μM)
Collected IC50 values appear next to each entry.
State just the number; it will be interpreted in µM.

compound	unit_info	assay_value
O=C(NN=Cc1cc(O)ccc1O)c1ccccc1 [Example 1]	µM	15
CNc1ccccc1C(=O)NN=Cc1cc(Cl)ccc1O [Example 18]	µM	4
O=C(NN=Cc1cc(O)ccc1O)c1ccc(Cl)c(Cl)c1 [Example 12]	µM	0.7
COc1cccc(C(=O)NN=C(C)c2ccccc2N)c1 [Example 25]	µM	20
O=C(NN=Cc1cccc(O)c1O)c1ccccc1 [Example 26]	µM	50

# IC50 lookup, item O=C(NN=Cc1ccccc1O)c1ccc(Br)cc1 [Example 31]
75

Query (compound): Cc1ccc(O)c(C=NNC(=O)c2ccccc2)c1 [Example 17] ; field requested: IC50
6

Name the reported IC50 value associated with the compound O=C(NN=Cc1cc(O)ccc1O)c1cccc(C(F)(F)F)c1 [Example 34]
15

Requested field: IC50. Item: CNc1ccccc1C(=O)NN=C(C)c1ccccc1O [Example 22]
2

Reported IC50 for CNc1ccccc1C(=O)NN=Cc1cc(O)ccc1O [Example 19] : what is it?
2

* * *

Reported MIC by item:
Test system: Escherichia coli DC2

Before answering, review these 8 worked examples.
smi	assay_system	MIC
COc1cc(C(=O)NN=Cc2cc(Cl)ccc2O)ccc1O	Escherichia coli DC2	128 µg/mL
O=C(NN=Cc1cc(Cl)cc(Cl)c1O)c1ccccc1	Escherichia coli DC2	> 128 µg/mL
O=C(NN=Cc1cc(Cl)cc(Cl)c1O)c1cccc(Cl)c1-n1cccc1	Escherichia coli DC2	> 128 µg/mL
O=C(NN=Cc1cc(O)ccc1O)c1ccccc1	Escherichia coli DC2	128 µg/mL
O=C(NN=Cc1cc(O)c(O)cc1O)c1cccc(C(F)(F)F)c1	Escherichia coli DC2	> 128 µg/mL
O=C(NN=Cc1ccc(O)c(O)c1O)c1ccc(Cl)c(C(F)(F)F)c1	Escherichia coli DC2	2 µg/mL
CN(N=Cc1ccc(O)c(O)c1O)C(=O)c1ccc(Cl)c(Cl)c1	Escherichia coli DC2	> 128 µg/mL
O=C(NN=Cc1cc(O)c(O)cc1O)c1ccccc1-n1cccc1	Escherichia coli DC2	128 µg/mL

Quick one: MIC of O=C(NN=Cc1cccc(O)c1O)c1ccc(Cl)c(Cl)c1 ?
> 128 µg/mL

// returns reported MIC for input O=C(NN=Cc1ccc(O)c(O)c1O)c1cccc(Cl)c1
64 µg/mL

Which MIC reading was recorded for the compound O=C(NN=Cc1ccc(O)c(O)c1O)c1ccc(Cl)c(Cl)c1 ?
32 µg/mL

Find the recorded MIC belonging to O=C(NN=Cc1cc(Cl)ccc1O)c1cccc(C(F)(F)F)c1 and report it.
> 128 µg/mL

Fill in the blank: the reported MIC of O=C(NN=Cc1ccc(O)cc1O)c1cccc(C(F)(F)F)c1 is ____.
32 µg/mL

Bench note: what MIC did O=C(NN=Cc1cc(O)ccc1O)c1ccc(Cl)cc1 show?
> 128 µg/mL

What value of measured MIC is listed for O=C(NN=Cc1ccc(O)c(O)c1O)c1cccc(C(F)(F)F)c1 ?
64 µg/mL

What value of MIC has been reported for the following compound? O=C(NN=Cc1cc(Cl)cc(Cl)c1O)c1ccc(Cl)c(C(F)(F)F)c1
> 128 µg/mL

Which MIC is reported for this compound? COc1cc(C(=O)NN=Cc2ccc(O)c(O)c2O)cc(OC)c1OC
128 µg/mL

I would be grateful if you could share the reported MIC for O=C(NN=Cc1ccc(O)c(O)c1O)c1cccc(Cl)c1-n1cccc1 .
128 µg/mL

Tell me the measured MIC of O=C(NN=Cc1cc(O)c(O)cc1O)c1ccc(Cl)cc1 , please.
64 µg/mL

Item COc1ccc(C(=O)NN=Cc2ccc(O)c(O)c2O)cc1 has what recorded MIC?
64 µg/mL
